Let's look at some molecules and their measured Emax.
System: HepG2 cells
Experiment Summary: Drug/cytokine-induced cytotoxicity (% LDH release) concentration-response in HepG2 cells
Format: cell-based, human
Condition Context: Homo sapiens, HepG2; maximal LDH response; drug alone (VEH), 24 h; read-out: max
Numeric answer only, unit % assumed.

Prompt line: So what's the measured Emax for this one? C[C@H]1COc2c(N3CCN(C)CC3)c(F)cc3c(=O)c(C(=O)O)cn1c23
Response line: 14

Prompt line: So what's the measured Emax for this one? CC(CN1c2ccccc2Sc2ccccc21)N(C)C (stereo not shown)
Response line: 17

Prompt line: So what's the measured Emax for this one? Nc1c(CC(=O)O)cccc1C(=O)c1ccc(Br)cc1
Response line: 13.8

Prompt line: So what's the measured Emax for this one? O=C1CC2(CCCC2)CC(=O)N1CCCCN1CCN(c2ncccn2)CC1
Response line: 17.6

Prompt line: So what's the measured Emax for this one? CC[C@H]1OC(=O)[C@H](C)[C@@H](O[C@H]2C[C@@](C)(OC)[C@@H](O)[C@H](C)O2)[C@H](C)[C@@H](O[C@@H]2O[C@H](C)C[C@H](N(C)C)[C@H]2O)[C@](C)(O)C[C@@H](C)CN(C)[C@H](C)[C@@H](O)[C@]1(C)O
Response line: 11.6

Prompt line: So what's the measured Emax for this one? CC(C)C(=O)Nc1ccc([N+](=O)[O-])c(C(F)(F)F)c1 [Flutamide]
Response line: 24.6

Let us move to another entry and its Emax.
Prompt line: So what's the measured Emax for this one? CS(=O)(=O)c1ccc(C2=C(c3ccccc3)C(=O)OC2)cc1
Response line: 12.2

###

Experiment Summary: Logistic regression classification model: probability that a drug is associated with IDILI
Parameters: species or system human
Condition Context: probability that drug is associated with IDILI; covariates Deltadiff, EC50 VEH, EC50 TNF, Delta VEH, Cmax; optimal cutoff 0.46
Property Name: Estimated probability
Reply with the value as a number alone.

Examples with answers:
Prompt line: So what's the measured Estimated probability for this one? CC(=O)[C@]1(O)Cc2c(O)c3c(c(O)c2[C@@H](O[C@H]2C[C@H](N)[C@H](O)[C@H](C)O2)C1)C(=O)c1ccccc1C3=O [Idarubicin]
Response line: 0.1275

Prompt line: So what's the measured Estimated probability for this one? CC(CN1c2ccccc2Sc2ccccc21)N(C)C (stereo not shown) [Promethazine]
Response line: 0.1275

Prompt line: So what's the measured Estimated probability for this one? CN[C@H]1CC[C@@H](c2ccc(Cl)c(Cl)c2)c2ccccc21 [Sertraline]
Response line: 0.1275

Prompt line: So what's the measured Estimated probability for this one? CC(=O)Oc1ccccc1C(=O)O [Aspirin]
Response line: 0.1445

Prompt line: So what's the measured Estimated probability for this one? CC[C@H]1OC(=O)[C@H](C)[C@@H](O[C@H]2C[C@@](C)(OC)[C@@H](O)[C@H](C)O2)[C@H](C)[C@@H](O[C@@H]2O[C@H](C)C[C@H](N(C)C)[C@H]2O)[C@](C)(O)C[C@@H](C)CN(C)[C@H](C)[C@@H](O)[C@]1(C)O [Azithromycin]
Response line: 0.1276

Prompt line: So what's the measured Estimated probability for this one? Nc1c(CC(=O)O)cccc1C(=O)c1ccc(Br)cc1 [Bromfenac]
Response line: 0.9397

Let us move to another entry and its Estimated probability.
Prompt line: So what's the measured Estimated probability for this one? Cc1onc(-c2c(F)cccc2Cl)c1C(=O)N[C@@H]1C(=O)N2[C@@H]1SC(C)(C)[C@@H]2C(=O)O [Flucloxacillin]
Response line: 0.1545
